Cited source: ChEMBL document CHEMBL3044672

What CC50 was measured for each of the following?
System: HT-29
PROCEDURE_SUMMARY: Cytotoxicity against Homo sapiens (human) HT-29 cells after 48 hr by sulforhodamine B assay
Format: functional
SETTINGS: HT-29, 48 h, read-out: LC50 (the source's name)

Exercise: Give CC50 for `Nc1nc(Cl)c2ncn(Cc3ccc(CCl)cc3)c2n1` tested on HT-29.
Solution: 77.6 µM

Exercise: Give CC50 for `ClCc1ccccc1Cn1cnc2nc(Cl)nc(Cl)c21` tested on HT-29.
Solution: > 100 µM

Exercise: Give CC50 for `ClCc1ccc(Cn2cnc3c(Cl)nc(Cl)nc32)cc1` tested on HT-29.
Solution: > 100 µM

Exercise: Give CC50 for `ClCc1ccccc1Cn1cnc2ncnc(Cl)c21` tested on HT-29.
Solution: > 100 µM

Exercise: Give CC50 for `ClCc1ccc(Cn2cnc3nc(Cl)nc(Cl)c32)cc1` tested on HT-29.
Solution: > 100 µM

Exercise: Give CC50 for `Nc1nc(Cl)c2ncn(Cc3ccccc3CCl)c2n1` tested on HT-29.
Solution: > 100 µM

Exercise: Give CC50 for `ClCc1cccc(Cn2cnc3ncnc(Cl)c32)c1` tested on HT-29.
Solution: 6.02 µM

Exercise: Give CC50 for `ClCc1ccc(Cn2cnc3ncnc(Cl)c32)cc1` tested on HT-29.
Solution: 56.2 µM

Exercise: Give CC50 for `ClCc1cccc(Cn2cnc3c(Cl)ncnc32)c1` tested on HT-29.
Solution: > 100 µM

Exercise: Give CC50 for `Nc1nc(Cl)c2ncn(Cc3cccc(CCl)c3)c2n1` tested on HT-29.
Solution: 64.6 µM

Exercise: Give CC50 for `ClCc1ccccc1Cn1cnc2c(Cl)ncnc21` tested on HT-29.
Solution: > 100 µM

Exercise: Give CC50 for `ClCc1ccccc1Cn1cnc2c(Cl)nc(Cl)nc21` tested on HT-29.
Solution: > 100 µM

Exercise: Give CC50 for `ClCc1cccc(Cn2cnc3c(Cl)nc(Cl)nc32)c1` tested on HT-29.
Solution: > 100 µM
